target: F295A mutant full-length PDE5A2 biosensor (Homo sapiens, UniProt O76074, F295A); assay: BRET-based full-length PDE5A2 conformational biosensor, cGMP dose-response (F295A); details: 30 min incubation, mean ± S.D., three experiments, read-out: EC50 of cGMP-induced conformational change (decrease in BRET)
result_type: EC50 (µM)

>>> measured_value("Nc1nc2c(ncn2[C@@H]2O[C@@H]3COP(=O)(O)O[C@H]3[C@H]2O)c(=O)[nH]1")
3.4
